Where a name gives a salt, the structure may show the parent alone.
Catalogue of melting point values
Measurement Name: melting point

- CC(C)CN1CCN(CCOc2ccc(-c3cccc(N)n3)c3c2CCC3)CC1 (as salt: hydrochloride) [Example 62]: 170 to 190 °C
- CN1C2CCC1CC(Oc1ccc(-c3cccc(N)n3)c3ccccc13)C2 (stereo not drawn) (as salt: hydrochloride): 260 to 275 °C
- Nc1cccc(-c2ccc(OC3CN(Cc4cccnc4)C3)c3ccccc23)n1 (as salt: hydrochloride) [Example 72]: 150 to 180 °C
- Nc1cccc(-c2ccc(OC3CCNC3)c3ccccc23)n1 (stereo not drawn) (as salt: hydrochloride) [Example 28]: 60 to 70 °C
- CN1CCC(Oc2ccc(-c3cccc(N)n3)c3ccccc23)CC1 (as salt: hydrochloride) [Example 33]: 179 to 187 °C
- Nc1cccc(-c2ccc(CCNCc3ccc4c(c3)OCO4)c3ccccc23)n1 (as salt: hydrochloride) [Example 6]: 80 to 110 °C
- Nc1cccc(-c2ccc(OC3CCN(Cc4ccco4)CC3)c3ccccc23)n1 (as salt: hydrochloride) [Example 30]: 178 to 195 °C
- CN1CC(Oc2ccc(-c3cccc(N)n3)c3ccccc23)C1 (as salt: hydrochloride) [Example 75]: 240 to 255 °C
- Nc1cccc(-c2ccc(CCN3CC4C(N)C4C3)c3ccccc23)n1 (stereo not drawn) (as salt: hydrochloride) [Example 2]: 250 to 260 °C
- Nc1cccc(-c2ccc(OCCN3CC4C(N)C4C3)c3ccccc23)n1 (stereo not drawn) (as salt: hydrochloride) [Example 16]: 140 to 155 °C
- Nc1cccc(-c2ccc(OCC3CCCNC3)c3ccccc23)n1 (stereo not drawn) (as salt: hydrochloride) [Example 64]: 164 to 185 °C
- Nc1cccc(-c2ccc(OCCN3CCC(N)C3)c3ccccc23)n1 (stereo not drawn) (as salt: hydrochloride) [Example 18]: 70 to 90 °C
- CC(C)N(CCOc1ccc(-c2cccc(N)n2)c2c1CCCC2)C(C)C (as salt: hydrochloride) [Example 40]: 50 to 60 °C
- COc1cc(CNCCc2ccc(-c3cccc(N)n3)c3ccccc23)cc(OC)c1OC (as salt: hydrochloride) [Example 8]: 75 to 95 °C
- Nc1cccc(-c2ccc(CCN3CCC(C(c4ccccc4)c4ccccc4)CC3)c3ccccc23)n1 (as salt: hydrochloride) [Example 3]: 225 to 235 °C

====

Measured melting point accompanies every entry in the list below.
Structures can show the parent of a compound that is named as a salt.
Measurement Name: melting point

* Nc1cccc(-c2ccc(OC3CN4CCC3CC4)c3ccccc23)n1 (stereo not shown) (as salt: hydrochloride) | 220 to 228 °C
* Nc1cccc(-c2ccc(CCNCc3ccco3)c3ccccc23)n1 (as salt: hydrochloride) | 185 to 205 °C
* Nc1cccc(-c2ccc(CCN3CCN(CCc4ccccc4)CC3)c3ccccc23)n1 (as salt: hydrochloride) | 80 to 105 °C
* CN(C)CCCOc1ccc(-c2cccc(N)n2)c2ccccc12 (as salt: hydrochloride) | 105 to 120 °C
* CC(C)CN1CCC(Oc2ccc(-c3cccc(N)n3)c3ccccc23)C1 (stereo not shown) (as salt: hydrochloride) | 78 to 85 °C
* Nc1cccc(-c2ccc(OC3CCN(Cc4ccccc4)CC3)c3ccccc23)n1 (as salt: hydrochloride) | 265 to 285 °C (dec.)
* Nc1cccc(-c2ccc(OC3CN(Cc4ccccn4)C3)c3ccccc23)n1 (as salt: hydrochloride) | 97 to 120 °C
